# Assay target: T1, Anti-PSMA Fab (biotinylated (site not stated))
# T1 construct: Biotinylated PSMA Fab captured on neutravidin plates in the phage ELISA; also called 006 PSMA Fab
# Procedure summary: clonal phage ELISA on captured biotinylated PSMA Fab, anti-M13 HRP detection
Give measured Phage binding ELISA signal, Anti-PSMA Fab for each item. Keep answers brief.
Give bare numbers.

| Binder | Endpoint value |
| --- | --- |
| EWPICRPSWMCDDF [Phage-3994] | 0.63 |
| HVQRCVPQWMCVGF [Phage-3987] | 0.686 |
| KHILCEPVWMCVGF [Phage-3984] | 0.697 |
| SVMNCVPLRMCEGF [Phage-3991] | 0.644 |
| YERMCSPEWMCWDF [Phage-3983] | 0.704 |

What the record says about STPYCVPDWMCAGF [Phage-3988] : Phage binding ELISA signal, Anti-PSMA Fab is 0.683
